Cited source for all entries: patent US20250018014A1

Biological target: binding between TBK1 and full-length Regnase-1 (FL_Reg1) (Homo sapiens)
Construct: made in house; host or cells: Expi293 cells
Sequence (Q5D1E8 1-599): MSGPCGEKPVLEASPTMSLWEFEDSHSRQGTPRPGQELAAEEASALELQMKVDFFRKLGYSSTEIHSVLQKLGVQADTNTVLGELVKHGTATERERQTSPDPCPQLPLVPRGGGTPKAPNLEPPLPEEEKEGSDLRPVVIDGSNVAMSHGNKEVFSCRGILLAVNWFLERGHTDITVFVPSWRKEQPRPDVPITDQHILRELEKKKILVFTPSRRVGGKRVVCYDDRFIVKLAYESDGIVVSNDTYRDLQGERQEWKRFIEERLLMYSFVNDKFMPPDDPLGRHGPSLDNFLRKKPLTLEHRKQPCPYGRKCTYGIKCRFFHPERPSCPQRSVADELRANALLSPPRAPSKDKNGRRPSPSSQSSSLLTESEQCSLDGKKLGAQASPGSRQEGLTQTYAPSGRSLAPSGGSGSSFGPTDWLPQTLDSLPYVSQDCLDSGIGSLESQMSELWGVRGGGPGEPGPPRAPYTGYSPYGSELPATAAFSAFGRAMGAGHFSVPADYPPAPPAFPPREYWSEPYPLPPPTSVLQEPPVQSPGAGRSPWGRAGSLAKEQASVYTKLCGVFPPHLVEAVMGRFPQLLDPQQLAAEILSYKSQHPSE
Assay: Inhibition of kinase-Regnase-1 binding by the compounds (AlphaScreen), TBK1
Settings: Table 13; binding between TBK1 and Regnase-1; read-out: Binding inhibition FL_Reg1, 50% inhibition concentration (TBK1)
Residues, ends and D or L forms follow the SMILES beside them.
Assignment: determine reported pIC50 for the given compounds.
Quick note: pIC50 means taking -log10 of the concentration in moles per liter.

Query: Name the recorded pIC50 for CC[C@H](C)[C@@H]1NC(=O)[C@H](Cc2c[nH]c3ccccc23)NC(=O)[C@@H](Cc2ccccc2)NC(=O)[C@H](CCCCN)NC(=O)[C@H](C)N(C)C(=O)C[C@@H](C(=O)N2CCCC2)NC(=O)[C@H](CCC(=O)O)NC(=O)[C@H](Cc2ccccc2)NC(=O)[C@H](CO)NC(=O)[C@H](Cc2c[nH]cn2)NC(=O)[C@H](Cc2c[nH]cn2)NC1=O [PP20] (HELM PEPTIDE1{[meA].K.[dF].W.I.H.H.S.F.E.D.[C1CCN([*:1])C1]}$PEPTIDE1,PEPTIDE1,1:R1-11:R3$$$V2.0) .
Reply: 4.32

Query: Fill in: pIC50 of CC[C@H](C)[C@@H]1NC(=O)[C@H](CC(N)=O)NC(=O)[C@H]([C@@H](C)CC)NC(=O)[C@H](Cc2ccc(O)cc2)NC(=O)[C@H](Cc2c[nH]c3ccccc23)NC(=O)[C@H](CO)NC(=O)[C@H](CC(N)=O)NC(=O)[C@H](C)N(C)C(=O)C[C@@H](C(=O)N2CCCC2)NC(=O)[C@H](Cc2c[nH]cn2)NC(=O)CNC(=O)[C@H](Cc2c[nH]c3ccccc23)NC1=O [PP15] (HELM PEPTIDE1{[meA].N.S.W.Y.I.N.I.W.G.H.D.[C1CCN([*:1])C1]}$PEPTIDE1,PEPTIDE1,1:R1-12:R3$$$V2.0) is ___
Reply: 4.86

Query: Give the measured pIC50 of CC[C@H](C)[C@@H]1NC(=O)[C@H](Cc2c[nH]c3ccccc23)NC(=O)[C@H](CO)NC(=O)[C@H](Cc2c[nH]c3ccccc23)NC(=O)[C@H](C(C)C)NC(=O)CNC(=O)[C@H](Cc2ccccc2)NC(=O)[C@H](CCCNC(=N)N)NC(=O)[C@H](C)N(C)C(=O)C[C@@H](C(=O)N2CCCC2)NC(=O)[C@@H]2CCCN2C(=O)[C@H](Cc2ccc(O)cc2)NC1=O [PP14] (HELM PEPTIDE1{[meA].R.F.G.V.W.S.W.I.Y.P.D.[C1CCN([*:1])C1]}$PEPTIDE1,PEPTIDE1,1:R1-12:R3$$$V2.0) .
Reply: 5.15

Query: // query pIC50 value for entry CC[C@H](C)[C@@H]1NC(=O)[C@H](CCCCN)NC(=O)[C@H](Cc2ccc(O)cc2)NC(=O)[C@H](Cc2c[nH]c3ccccc23)NC(=O)[C@H](CO)NC(=O)[C@H](CO)NC(=O)[C@H]([C@@H](C)O)NC(=O)[C@@H]2CCCN2C(=O)[C@@H](C)N(C)C(=O)C[C@@H](C(=O)N2CCCC2)NC(=O)[C@H](Cc2c[nH]c3ccccc23)NC1=O [PP23] (HELM PEPTIDE1{[C[C@H](C(=O)[*:2])N(C)[*:1]].P.T.S.S.W.Y.K.I.W.D.[C1CCN([*:1])C1]}$PEPTIDE1,PEPTIDE1,1:R1-11:R3$$$V2.0)
Reply: 5.04

Query: // lookup pIC50 for CC[C@H](C)[C@@H]1NC(=O)[C@H](CCCCN)NC(=O)[C@H](Cc2ccc(O)cc2)NC(=O)[C@H](Cc2ccccc2)NC(=O)[C@H](C(C)C)NC(=O)[C@H](C)N(C)C(=O)C[C@@H](C(=O)N2CCCC2)NC(=O)[C@H](Cc2c[nH]c3ccccc23)NC(=O)[C@H](CC(N)=O)NC(=O)[C@H](Cc2ccc(O)cc2)NC(=O)[C@H](Cc2c[nH]c3ccccc23)NC1=O [PP19] (HELM PEPTIDE1{[meA].V.F.Y.K.I.W.Y.N.W.D.[C1CCN([*:1])C1]}$PEPTIDE1,PEPTIDE1,1:R1-11:R3$$$V2.0)
Reply: 5.62

====

Molecular target: binding between IKKβ and full-length Regnase-1 (FL_Reg1) (Homo sapiens, UniProt Q5D1E8)
Construct: made in house; host or cells: Expi293 cells
Sequence (Q5D1E8 1-599): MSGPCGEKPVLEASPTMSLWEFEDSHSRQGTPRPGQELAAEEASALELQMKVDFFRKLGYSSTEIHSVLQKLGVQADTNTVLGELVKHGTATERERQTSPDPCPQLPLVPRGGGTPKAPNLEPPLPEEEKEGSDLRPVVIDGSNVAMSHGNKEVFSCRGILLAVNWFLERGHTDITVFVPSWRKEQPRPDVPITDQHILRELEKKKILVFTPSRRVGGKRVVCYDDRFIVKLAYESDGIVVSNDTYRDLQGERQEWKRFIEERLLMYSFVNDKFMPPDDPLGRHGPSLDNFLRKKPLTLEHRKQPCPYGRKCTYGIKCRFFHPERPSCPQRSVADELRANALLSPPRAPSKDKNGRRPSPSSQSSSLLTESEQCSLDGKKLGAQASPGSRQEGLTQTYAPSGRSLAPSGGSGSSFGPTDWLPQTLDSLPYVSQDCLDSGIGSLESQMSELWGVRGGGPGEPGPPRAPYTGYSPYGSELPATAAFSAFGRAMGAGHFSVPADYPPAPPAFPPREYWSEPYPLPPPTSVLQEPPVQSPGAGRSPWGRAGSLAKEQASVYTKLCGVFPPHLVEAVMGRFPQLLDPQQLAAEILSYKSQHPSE
Assay: Inhibition of kinase-Regnase-1 binding by the compounds (AlphaScreen), IKKβ
Conditions: Table 14; binding between IKKβ and Regnase-1; read-out: Binding inhibition FL_Reg1, 50% inhibition concentration (IKKβ)
Description: As a target protein, a construct having a FLAG tag on the N-terminal side and a recognition sequence for biotin ligase BirA on the C-terminal side of the full-length sequence of human Regnase-1 (UniProt ID: Q5D1E8) was prepared (FL_Reg1). The above-mentioned Regnase-1 was expressed in mammalian Expi293 cells, purified with FLAG M2 agarose, and isolated by gel filtration chromatography. […]
Residues, ends and D or L forms follow the SMILES beside them.
VALUE TYPE: IC50 (µM)
Record the value in µM, omitting the unit from your answer.

Query: I am curious: what IC50 value has been reported for CC[C@H](C)[C@@H]1NC(=O)[C@H](Cc2c[nH]c3ccccc23)NC(=O)[C@H](CO)NC(=O)[C@H](Cc2c[nH]c3ccccc23)NC(=O)[C@H](C(C)C)NC(=O)CNC(=O)[C@H](Cc2ccccc2)NC(=O)[C@H](CCCNC(=N)N)NC(=O)[C@H](C)N(C)C(=O)C[C@@H](C(=O)N2CCCC2)NC(=O)[C@@H]2CCCN2C(=O)[C@H](Cc2ccc(O)cc2)NC1=O [PP14] (HELM PEPTIDE1{[meA].R.F.G.V.W.S.W.I.Y.P.D.[C1CCN([*:1])C1]}$PEPTIDE1,PEPTIDE1,1:R1-12:R3$$$V2.0) ?
Reply: 20.1
